Target: T1, Cynomolgus monkey CD98 ECD with C-terminal His-tag (cynomolgus monkey, UniProt P08195 105-529 (human entry))
T1 construct: The entry includes the linker and the polyhistidine tag; also called cyCD98 ECD
T1 chain: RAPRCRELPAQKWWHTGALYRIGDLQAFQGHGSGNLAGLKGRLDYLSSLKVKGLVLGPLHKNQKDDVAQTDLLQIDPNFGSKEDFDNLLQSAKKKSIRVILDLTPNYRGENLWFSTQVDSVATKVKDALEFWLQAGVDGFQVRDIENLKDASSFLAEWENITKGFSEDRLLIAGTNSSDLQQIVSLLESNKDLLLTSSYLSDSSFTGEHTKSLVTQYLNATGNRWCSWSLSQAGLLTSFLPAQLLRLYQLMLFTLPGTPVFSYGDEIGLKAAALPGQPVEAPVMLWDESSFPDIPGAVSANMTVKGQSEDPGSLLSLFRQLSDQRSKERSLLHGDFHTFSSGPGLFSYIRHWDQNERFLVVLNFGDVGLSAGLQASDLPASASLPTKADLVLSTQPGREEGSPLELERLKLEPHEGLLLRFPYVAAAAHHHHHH
Assay: SPR (Biacore), antibody captured on anti-Fc surface, CD98 ECD in solution
Kd: recorded values

BINDER | Kd / µM
huAb15v3 (antibody, V domains shown, Humanized, further engineered clone of chAb15, converted to IgG and expressed as a full-length antibody) VH: EVQLVESGGGVVQPGRSLRLSCAASGFTFSDYTMAWVRQAPGKGLEWVATIIYSGRGTYYRDAVKGRFTISRDNSKSTLYLQMNSLRAEDTAVYYCARQSDDTYYYWGYFDYWGQGTMVTVSS VL: DIVMTQSPDSLAVSLGERATINCKSSQSLLFSGNQKNYLAWYQQKPGQSPKLLIYWASTRQSGVPDRFSGSGSGTDFTLTIRSLQAEDVAIYYCQQYYGSPYTFGQGTKLEIK | 0.0076
huAb15v4 (antibody, V domains shown, Humanized, further engineered clone of chAb15, converted to IgG and expressed as a full-length antibody) VH: EVQLVESGGGVVQPGRSLRLSCAASGFTFSDYTMAWVRQAPGKGLEWVATIIYTGRGTYYRDAVKGRFTISRDNSKSTLYLQMNSLRAEDTAVYYCARQSDDTYYYWGYFDYWGQGTMVTVSS VL: DIVMTQSPDSLAVSLGERATINCKSSQSLLFSGNQKNYLAWYQQKPGQSPKLLIYWASTRQSGVPDRFSGSGSGTDFTLTIRSLQAEDVAIYYCQQYYDVPYTFGQGTKLEIK | 0.0026
huAb15v7 (antibody, V domains shown, Humanized, further engineered clone of chAb15, converted to IgG and expressed as a full-length antibody) VH: EVQLVESGGGVVQPGRSLRLSCAASGFTFSDYTMAWVRQAPGKGLEWVATIIYDARGTYYRDAVKGRFTISRDNSKSTLYLQMNSLRAEDTAVYYCARQSDDTYYYWGYFDYWGQGTMVTVSS VL: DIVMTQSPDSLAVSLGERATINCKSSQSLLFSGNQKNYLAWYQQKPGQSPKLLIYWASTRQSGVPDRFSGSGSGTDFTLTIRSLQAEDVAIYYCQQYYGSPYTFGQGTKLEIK | 0.03
huAb15v6 (antibody, V domains shown, Humanized, further engineered clone of chAb15, converted to IgG and expressed as a full-length antibody) VH: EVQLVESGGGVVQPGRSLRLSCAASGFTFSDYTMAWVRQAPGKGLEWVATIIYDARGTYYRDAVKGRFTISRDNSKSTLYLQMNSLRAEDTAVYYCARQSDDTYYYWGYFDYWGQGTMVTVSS VL: DIVMTQSPDSLAVSLGERATINCKSSQSLLFSGNQKNYLAWYQQKPGQSPKLLIYWASTRQSGVPDRFSGSGSGTDFTLTIRSLQAEDVAIYYCQQYYSSPYTFGQGTKLEIK | 0.034
